Data provenance: patent US20210139517A1

Listed next: entries and their corresponding Kd.
# assayed_system: SOS1 catalytic domain (residues 564-1049) (Homo sapiens, UniProt Q07889)
# run_description: SOS1 SPR binding affinity assay (Biacore 8K)
# run_conditions: avi-tagged SOS1 catalytic domain immobilized on streptavidin chip; equilibrium 1:1 binding fit; read-out: SOS1 SPR Equilibrium Kd
recorded_endpoint: Kd (nM)

>>> val("C[C@@H](Nc1ncnc2c1cc(C(=O)N1CC3CCC(C1)O3)c(=O)n2C)c1cccc(C(F)F)c1F [Example 26-19]")
148
>>> val("CC(=O)N1CCC(c2cc3c(N[C@H](C)c4cc(C(F)(F)F)cc(N)c4F)ncnc3n(C)c2=O)CC1 [Example 15]")
168
>>> val("C[C@@H](Nc1ncnc2c1cc(N1CCOCC1)c(=O)n2C)c1cc(N)cc(C(F)(F)F)c1 [Example 12]")
7.94
>>> val("Cc1nc(N[C@H](C)c2cccc(C(F)F)c2F)c2cc(C3CCN(C)CC3F)c(=O)n(C)c2n1 (stereo partly shown) [Example 18]")
16
>>> val("Cc1nc(N[C@H](C)c2cccc(C(F)(F)CO)c2)c2cc(C3=CCOCC3)c(=O)n(C)c2n1 [Example 3]")
21.8
>>> val("Cc1nc(N[C@H](C)c2cccc(C(F)F)c2F)c2cc(CN3CCOCC3)c(=O)n(C)c2n1 [Example 27]")
550
>>> val("C[C@@H](Nc1ncnc2c1cc(C1CCNCC1O)c(=O)n2C)c1cccc(C(F)F)c1F (stereo partly shown) [Example 34]")
72.9

----------
# assayed_system: SOS1 catalytic domain (residues 564-1049) (Homo sapiens)
# Sequence (Q07889 564-1049): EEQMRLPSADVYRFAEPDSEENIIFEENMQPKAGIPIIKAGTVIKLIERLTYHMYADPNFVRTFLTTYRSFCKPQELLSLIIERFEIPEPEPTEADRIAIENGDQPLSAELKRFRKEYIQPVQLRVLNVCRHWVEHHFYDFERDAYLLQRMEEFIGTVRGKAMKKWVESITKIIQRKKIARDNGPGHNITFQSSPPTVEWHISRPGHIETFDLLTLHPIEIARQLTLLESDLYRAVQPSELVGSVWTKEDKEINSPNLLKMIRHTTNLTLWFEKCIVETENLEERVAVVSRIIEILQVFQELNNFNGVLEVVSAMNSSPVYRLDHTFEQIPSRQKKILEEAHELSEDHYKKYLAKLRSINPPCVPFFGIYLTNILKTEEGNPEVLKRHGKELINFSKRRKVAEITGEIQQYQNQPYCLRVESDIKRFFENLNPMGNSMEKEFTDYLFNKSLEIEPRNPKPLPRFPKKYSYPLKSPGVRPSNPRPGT
# run_description: SOS1 SPR binding affinity assay (Biacore 8K)
# run_conditions: avi-tagged SOS1 catalytic domain immobilized on streptavidin chip; equilibrium 1:1 binding fit; read-out: SOS1 SPR Equilibrium Kd
Mark each entry TRUE if its Kd sits below 40 nM, and FALSE for all others.

>>> label_class("C[C@@H](Nc1ncnc2c1cc(N1CCOCC1)c(=O)n2C)c1cccc(C(F)(F)F)c1 [Example 13]")
"TRUE"
>>> label_class("Cc1nc(N[C@H](C)c2cccc(C(F)F)c2F)c2cc(C(=O)N3CCOCC3)c(=O)n(C)c2n1 [Example 26]")
"FALSE"
>>> label_class("C[C@@H](Nc1ncnc2c1cc(C1(F)CCS(=O)(=O)CC1)c(=O)n2C)c1cccc(C(F)F)c1F [Example 29]")
"TRUE"
>>> label_class("C[C@@H](Nc1ncnc2c1cc(-c1ccnnc1)c(=O)n2C)c1cccc(C(F)F)c1F [Example 21]")
"TRUE"
>>> label_class("Cc1nc(N[C@H](C)c2cc(N)cc(C(F)(F)F)c2)c2cc(C3=CCOCC3)c(=O)n(C)c2n1 [Example 7]")
"FALSE"
